log10 IC50, Gag-Pol polyprotein [1148-1435] (Human immunodeficiency virus 1, UniProt P04585), per-entry values.
All values: log10 IC50 [µM].

Compound | Measured on | log10 IC50
O=C1C(=O)c2ccccc2C(=O)C1=Cc1c(O)c(O)c2ccccc2c1O | Gag-Pol polyprotein [1148-1435] (Human immunodeficiency virus 1, UniProt P04585) | 1.30
COc1cc2c(cc1OC)C(=O)N1CSCC1C(=O)S2 (stereo not drawn) | Gag-Pol polyprotein [1148-1435] (Human immunodeficiency virus 1, UniProt P04585) | 2.52
O=C(NNCc1ccccc1O)c1ccccc1O | Gag-Pol polyprotein [1148-1435] (Human immunodeficiency virus 1, UniProt P04585) | -0.15
O=C(NCc1cc2ccccc2s1)c1nc(-c2cccs2)nc(O)c1O | Gag-Pol polyprotein [1148-1435] (Human immunodeficiency virus 1, UniProt P04585) | -2.00
O=C1/C(=C\c2cccc(O)c2)C=NN1C(=O)c1ccccc1O | Gag-Pol polyprotein [1148-1435] (Human immunodeficiency virus 1, UniProt P04585) | 0.87

For the compound O=C(NCc1ccc(Cl)c(Cl)c1)c1nc(-c2cccs2)nc(O)c1O , what log10 IC50 is on record?
-2.00

For the compound O=C(O)C(=O)CC(=O)c1cn(Cc2ccc(F)cc2)c2ccc(F)cc2c1=O , what log10 IC50 is on record?
0.36

For the compound COC(=O)c1ccc(CC(=O)c2cc(C=O)c(O)cc2C)c(C)c1O , what log10 IC50 is on record?
2.09

For the compound C=c1[nH]n(C(=O)c2ccc(Cl)cc2)c(=O)c1=Cc1ccc(O)cc1 , what log10 IC50 is on record?
2.47

For the compound O=C1c2ccccc2C(C2CCCCC2)C(=O)N1O (stereo not drawn) , what log10 IC50 is on record?
0.13

For the compound Oc1ccccc1CNNCC(O)COc1ccccc1 (stereo not drawn) , what log10 IC50 is on record?
2.30

For the compound COC(=O)c1ccc2cc(CCc3ccc(O)c(O)c3)oc2c1 , what log10 IC50 is on record?
1.64

For the compound O=C(NO)c1ccc2c(c1)CCN2Cc1ccc(F)cc1F , what log10 IC50 is on record?
1.92

====

Each item that follows carries a reported pIC50.
Measured on: Gag-Pol polyprotein [1148-1435] (Human immunodeficiency virus 1)
Construct: 1148-1435
Assay overview: HIV-1 Integrase Assay
// pIC50 is dimensionless: -log10 of concentration (M)

Sample records with pIC50:
Compound | Parameter measured | Recorded number
O=C(O)C(=O)CC(=O)c1c[nH]c2ccc(Cl)cc12 | pIC50 | 6.28
Cn1c(=O)c(C(=O)O)c(O)c2cc(-c3ccc(F)cc3)ccc21 | pIC50 | 4.64
O=C(NNC(=O)c1cccc(O)c1O)c1ccccc1O | pIC50 | 6.30
O=c1oc2ccccc2c(O)c1C1c2ccccc2Oc2c1c(=O)oc1ccccc21 (stereo unspecified) | pIC50 | 3.91
O=C(O)C(=O)CC(=O)c1cc(OCc2ccccc2)cc(OCc2ccccc2)c1 | pIC50 | 7.23

For the compound O=C(Nc1ncnc2c1ncn2Cc1ccc(F)cc1)c1ccc2cccnc2c1O , what pIC50 is on record?
4.95
